Biological target: T1, PUF (S4) (human, UniProt Q14671 828-1176, C935N;N971C;H972Y;C1007N;N1043C)
T1 sequence: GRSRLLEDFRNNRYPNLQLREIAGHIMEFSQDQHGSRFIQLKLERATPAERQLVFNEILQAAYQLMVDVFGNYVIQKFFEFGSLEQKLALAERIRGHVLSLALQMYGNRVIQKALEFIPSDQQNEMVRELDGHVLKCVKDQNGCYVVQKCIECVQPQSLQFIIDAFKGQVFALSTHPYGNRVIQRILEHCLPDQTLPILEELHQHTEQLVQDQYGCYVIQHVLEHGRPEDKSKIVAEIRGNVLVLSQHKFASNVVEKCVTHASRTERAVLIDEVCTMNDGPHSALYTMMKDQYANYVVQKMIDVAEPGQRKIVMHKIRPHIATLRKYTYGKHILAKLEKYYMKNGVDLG
Assay: fluorescence polarization/anisotropy; noncognate; 1 nM RNA; 20 mM Tris-HCl pH 7.5, 0.5 mM EDTA, 50 mM KCl, 0.1 mg/ml BSA; temperature not stated; protein corrected for active fraction (about 30%); KD mean ± SD, n = 3
Conditions: protein: recombinant; tags: His-tag (pET28a); label: 5' 6-carboxyfluorescein
pKd: −log10 of the molar value.
READOUT KIND: pKd

INSERT INTO assay_data (binder, value_reported) VALUES
  ('CCAGAAUUGUAUAUAUUCG (ssRNA) [WT RNA (UGUAUAUA)]', 8.24);
